// provenance: patent US11046672B2

Measured concentration at 0.1 h of individual entries
assay summary: Pharmacokinetic measurements in rats (intravenous and intra-tracheal dosing)
Assay type: in vivo
cond: male, CD, lung, other: intra-tracheal; rat, i.t. dosing, 0.1 h; read-out: lung concentration (nM) at time (h)
Please respond with the number in nM and leave the unit unwritten.

Some compounds with known concentration at 0.1 h results, for comparison:
| molecular string | uom | concentration at 0.1 h |
| --- | --- | --- |
| COC(=O)c1ccc2c(c1)NC(=O)/C2=C(\Nc1ccc(S(=O)(=O)NOCCN(C)C)cc1)c1ccccc1 | nM | 3430 |
| COC(=O)c1ccc2c(c1)NC(=O)/C2=C(\Nc1ccc(C(=O)NOCCN2CCN(C)CC2)cc1)c1ccccc1 | nM | 5540 |
| COC(=O)c1ccc2c(c1)NC(=O)/C2=C(\Nc1ccc(C(=O)NOCCN(C)C)cc1)c1ccccc1 | nM | 6690 |
| COC(=O)c1cc2c(cc1C)/C(=C(/Nc1ccc(C(=O)NOCCN3CCN(C)CC3)cc1)c1ccccc1)C(=O)N2 | nM | 30400 |
| COC(=O)c1cc2c(cc1C)/C(=C(/Nc1ccc(C(=O)NOCCN(C)C)c(C)c1)c1ccccc1)C(=O)N2 | nM | 3590 |

For the next question, use this compound.
INPUT: Bench note: what concentration at 0.1 h did COC(=O)c1cc2c(cc1C)/C(=C(/Nc1ccc(C(=O)NOCCN3CCN(CCO)CC3)cc1)c1ccccc1)C(=O)N2 show?
OUTPUT: 2100

---

target under test: PDGFRβ (Homo sapiens (Human))
Sequence (P09619 33-1106): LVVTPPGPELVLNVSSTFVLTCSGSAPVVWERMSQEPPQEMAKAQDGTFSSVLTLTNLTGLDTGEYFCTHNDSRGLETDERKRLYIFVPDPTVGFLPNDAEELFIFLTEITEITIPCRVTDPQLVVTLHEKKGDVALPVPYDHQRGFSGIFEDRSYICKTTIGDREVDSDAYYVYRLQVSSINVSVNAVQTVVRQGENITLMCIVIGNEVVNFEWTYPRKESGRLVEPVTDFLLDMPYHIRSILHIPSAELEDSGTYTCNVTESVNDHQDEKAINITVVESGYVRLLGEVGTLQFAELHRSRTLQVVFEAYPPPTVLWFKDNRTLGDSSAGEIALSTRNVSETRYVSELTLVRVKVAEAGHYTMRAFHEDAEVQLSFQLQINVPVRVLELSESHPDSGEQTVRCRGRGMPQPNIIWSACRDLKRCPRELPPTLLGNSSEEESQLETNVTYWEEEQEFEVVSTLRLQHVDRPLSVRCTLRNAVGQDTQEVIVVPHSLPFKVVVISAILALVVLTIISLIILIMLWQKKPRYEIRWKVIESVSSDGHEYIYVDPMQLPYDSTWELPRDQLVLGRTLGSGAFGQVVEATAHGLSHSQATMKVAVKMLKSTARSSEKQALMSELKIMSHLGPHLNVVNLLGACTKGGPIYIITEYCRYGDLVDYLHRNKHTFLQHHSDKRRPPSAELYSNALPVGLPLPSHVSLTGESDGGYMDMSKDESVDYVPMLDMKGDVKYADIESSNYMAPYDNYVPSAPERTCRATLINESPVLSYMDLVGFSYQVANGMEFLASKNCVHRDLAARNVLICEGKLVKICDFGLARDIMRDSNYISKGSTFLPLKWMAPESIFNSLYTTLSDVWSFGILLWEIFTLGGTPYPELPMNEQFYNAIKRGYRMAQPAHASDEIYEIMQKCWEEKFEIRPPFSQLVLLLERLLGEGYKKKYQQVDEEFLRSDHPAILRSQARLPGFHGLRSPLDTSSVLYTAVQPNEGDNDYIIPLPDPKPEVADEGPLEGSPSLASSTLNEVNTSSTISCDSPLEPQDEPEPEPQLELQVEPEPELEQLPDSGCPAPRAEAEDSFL
cond: read-out: Ki PDGFRβ; mean, n = 2 unless otherwise indicated
measurement label: Ki (nM)
Quick note: give the figure in nM, leave out the unit.

| molecular string | measurement label | observed value |
| --- | --- | --- |
| COC(=O)c1cc2c(cc1C)/C(=C(/Nc1ccc(C(=O)NOCCN3CCC(C#N)CC3)cc1)c1ccccc1)C(=O)N2 | Ki | 15.7 |

INPUT: Item COC(=O)c1cc2c(cc1C)/C(=C(/Nc1ccc(C(=O)NOCCN3CC[C@H](N(C)C)C3)cc1)c1ccccc1)C(=O)N2 has what recorded Ki?
OUTPUT: 9.44

INPUT: Look up Ki: COC(=O)c1cc2c(cc1C)/C(=C(/Nc1ccc(C(=O)N(C)OCCN3CCNCC3)cc1)c1ccccc1)C(=O)N2
OUTPUT: 9.84

INPUT: Name the recorded Ki for COC(=O)c1cc2c(cc1C)/C(=C(/Nc1ccc(C(=O)NOCCN3CCN(C)CC3)c(F)c1)c1ccccc1)C(=O)N2 .
OUTPUT: 4.92

INPUT: Item under review: COC(=O)c1ccc2c(c1)NC(=O)/C2=C(\Nc1ccc(C(=O)NOCCN(C)C)cc1)c1ccccc1 . Reported Ki?
OUTPUT: 11.4

INPUT: I am curious: what Ki value has been reported for COC(=O)c1ccc2c(c1)NC(=O)/C2=C(\Nc1ccc(C(=O)N2CCN(C)CCO2)cc1)c1ccccc1 ?
OUTPUT: 15.5

INPUT: Name the recorded Ki for COC(=O)c1cc2c(cc1C)/C(=C(/Nc1ccc(C(=O)N(C)OCCN3C[C@@H]4C[C@H]3CN4)cc1)c1ccccc1)C(=O)N2 .
OUTPUT: 9.19

---

assay summary: PAMPA permeability assay
Type: in vitro ADME
cond: pH 7; PAMPA, donor and acceptor compartments
Below is a list of entries, each paired with its recorded recovery at 5 hr, 10 μM value.
I only need the number, in %, no unit after it.

| molecular string | recovery at 5 hr, 10 μM [%] |
| --- | --- |
| COC(=O)c1cc2c(cc1C)/C(=C(/Nc1ccc(C(=O)N(C)OCCN3CC4CCC(C3)N4)cc1)c1ccccc1)C(=O)N2 | 64.4 |

# ---- query compound ----
INPUT: State the recorded recovery at 5 hr, 10 μM for this entry: COC(=O)c1cc2c(cc1C)/C(=C(/Nc1ccc(C(=O)N(C)OCCN3C4CCC3CNC4)cc1)c1ccccc1)C(=O)N2
OUTPUT: 69.2

---

Each item that follows carries a reported Kp at 1.5 h.
assay summary: Pharmacokinetic measurements in mice (intravenous and intra-nasal dosing)
Format: in vivo
cond: male, C57BL/6J, lung/plasma, iv; mouse, i.v. dosing, 1.5 h; read-out: lung/plasma ratio at time(h)
Quick one: just the number, no unit, thanks!

| molecular string | Kp at 1.5 h |
| --- | --- |
| COC(=O)c1cc2c(cc1C)/C(=C(/Nc1ccc(C(=O)NOCCN3CCN(C)CC3)cc1)c1ccccc1)C(=O)N2 | 40 |

Here is another compound to look at.
INPUT: Which Kp at 1.5 h is listed for COC(=O)c1cc2c(cc1C)/C(=C(/Nc1ccc(C(=O)NOCCN(C)C)c(C)c1)c1ccccc1)C(=O)N2 ?
OUTPUT: 39

---

We begin with a simple list: items and their reported Cell viability at 100 nM (%).
Tested on: MRC5 cells
assay summary: Cell viability assay in MRC5 cells (MTT)
cond: 100 nM
The answer should read as a number with its unit following.

The following molecules have reported results that may help.
| molecule | Cell viability at 100 nM (%) |
| --- | --- |
| CNC(=O)CN1CCN(CCON(C)C(=O)c2ccc(N/C(=C3\C(=O)Nc4cc(C(=O)OC)c(C)cc43)c3ccccc3)cc2)CC1 [Example 9] | 129.9% |
| COC(=O)c1ccc2c(c1)NC(=O)/C2=C(\Nc1ccc(N(C)C(=O)CN2CCN(C)CC2)cc1)c1ccccc1 [Nintedanib, reference compound] | 104.6% |

# next molecule below
INPUT: For the molecule shown here, COC(=O)c1cc2c(cc1C)/C(=C(/Nc1ccc(C(=O)N(OC)C3CCN(C)CC3)cc1)c1ccccc1)C(=O)N2 [Example 35] , give the reported Cell viability at 100 nM (%).
OUTPUT: 92.9%

---

assay summary: PAMPA permeability assay
Assay type: in vitro ADME
cond: PAMPA, pH 7, PAMPA, donor and acceptor compartments
Strictly below 60% in recovery at 5 hr, 10 μM: YES. Otherwise: NO.

# example entries with known answers
| molecule | classification |
| --- | --- |
| CCN1CCN(CCONC(=O)c2ccc(N/C(=C3\C(=O)Nc4cc(C(=O)OC)c(C)cc43)c3ccccc3)cc2)CC1 [Example 36] | YES |
| COC(=O)c1ccc2c(c1)NC(=O)/C2=C(\Nc1ccc(C(=O)NOCCN2CCN(C)CC2)c(C)c1)c1ccccc1 [Example 17] | NO |
| COC(=O)c1ccc2c(c1)NC(=O)/C2=C(\Nc1ccc(C(=O)NOCCN2CCOCC2)cc1)c1ccccc1 [Example 12] | YES |

Could you now look at the following molecule, please?
INPUT: Could you please tell me whether recovery at 5 hr, 10 μM recorded for COC(=O)c1ccc2c(c1)NC(=O)/C2=C(\Nc1ccc(C(=O)NOCCN2CCNC(=O)C2)cc1)c1ccccc1 [Example 42] is less than 60%?
OUTPUT: NO

---

Listed here are compounds together with their documented IC50.
target under test: PDGFRβ (Homo sapiens (Human))
assay summary: PDGF-BB induced phosphorylation of PDGFRβ in fibroblasts (MRC5 cells, HTRF)
Format: cell-based
cond: MRC5 cells; n = 1 unless otherwise indicated; read-out: PDGFBB-induced PDGFRβ phosphorylation in MRC5 cells (IC50)
All answers are understood in nM, so give the number only.

// worked examples, IC50 included
| molecular string | IC50 (nM) |
| --- | --- |
| COC(=O)c1cc2c(cc1C)/C(=C(/Nc1ccc(C(=O)N(C)OCCN3C4CCC3CNC4)cc1)c1ccccc1)C(=O)N2 | 5.6 |
| COC(=O)c1ccc2c(c1)NC(=O)/C2=C(\Nc1ccc(C(=O)NOCCN2CCCCC2)cc1)c1ccccc1 | 21.5 |
| COC(=O)c1ccc2c(c1)NC(=O)/C2=C(\Nc1ccc(C(=O)N(OC)C2CCN(C)CC2)cc1)c1ccccc1 | 6.79 |

Read the next record carefully.
INPUT: Endpoint output: IC50 of COC(=O)c1ccc2c(c1)NC(=O)/C2=C(\Nc1ccc(S(=O)(=O)NOCCN(C)C)cc1)c1ccccc1 . Value?
OUTPUT: 19.9

---

assay summary: Pharmacokinetic measurements in rats (intravenous and intra-tracheal dosing)
Assay type: in vivo
cond: male, CD, lung, iv, 0.1 mg/kg; rat, i.v. dosing, 6 h; read-out: lung concentration (nM) at time (h)
measurement label: concentration at 6 h (nM)
Give the value, in units of nM, as a plain number.

| molecular string | uom | observed value |
| --- | --- | --- |
| COC(=O)c1cc2c(cc1C)/C(=C(/Nc1ccc(C(=O)NOCCN3CCN(CCO)CC3)cc1)c1ccccc1)C(=O)N2 | nM | 69 |

Next up:
INPUT: Returns the measured concentration at 6 h for the input compound. Input: COC(=O)c1cc2c(cc1C)/C(=C(/Nc1ccc(C(=O)NOCCN(C)C)c(C)c1)c1ccccc1)C(=O)N2
OUTPUT: 92
